- assay-name: label from the status in PepcDB records
recorded-endpoint: protein production

biosequence	recorded-endpoint	result
RNTNPGIKCFAVRSLGWVEMTEEELAPGRSSVAVNNCIRQLSYHKNNLHDPMSGGWGEG	protein production	failed
MTSPFHRLCRTTLAAGFLFGMASAALAVGDSNDDTNPPPKTETTKTCTGGKVWDKQRKECVTPKKNSFNDDDLYKFAREFAYAGQYENAITVLNLARNQNDPRILNYLGYANRKAGRMELGMSYYRKALQADENYILARSYMGMALVEQGDIQGARVQLVEIRDRGGEDTWAYRALLQSLNGYRTY	protein production	failed
MPKSADQGGSPASASHEALRHILDAGASMGGLQGLDEAQQQALYAIGHGAYEQGRYADALKMFCLLVACDPLEARYLLALGAAAQELGLYEHALQQYAAAAALQLDSPRPLLHGAECLYALGRRRDALDTLDMVLELCGSPERAALRERAELLRRSYARAD	protein production	failed
MQYINIANRGVKSLSPYQAGKPIEELERELGISNIVKLASNENPFGFPESAKKAIFEQLDKLTRYPDANGFELKQTIAKKFGVQPNQITLGNGSNDLLELFAHTFATEGDEIMYSQYAFIVYPLVTKAINAIVKEIPAKNWGHDLQGFLTALSDKTKLIYIANPNNPTGNFLTSQEIEDFLAEVPENVIVVLDEAYTEFTRSEERVDSFSLLKKYSNLIISRSLSKAYGLAGLRIGYAVSNPEIADLLNRVRQPFNCNSLALTAAVAVMNDDKFVEKVAENNRIEMRRYEDFCQKNQLDYIPSKGNFITIDFKQPAAPIYDALLREGVIVRPIAGYGMPNHLRISIGLPEENDKFFTALSKVLKFA	protein production	not failed
MAEDKTKPSELDQGKYDADDNVKIICLGDSAVGKSKLMERFLMDGFQPQQLSTYALTLYKHTATVDGRTILVDFWDTAGQERFQSMHASYYHKAHACIMVFDVQRKVTYRNLSTWYTELREFRPEIPCIVVANKIDADINVTQKSFNFAKKFSLPLYFVSAADGTNVVKLFNDAIRLAVSYKQNSQDFMDEIFQELENFSLEQEEEDVPDQEQSSSIETPSEEAASPHS	protein production	not failed
MKRFIVRAVLILVSFVLLIQLWIFCSLAWWRTHPVETTMFMRLDYWSDSSKPIQQQWRDYDEISDNFKKAVVAAEDGKFVHHHGFDWEGIQYALEKNEKSGEVVNGGSTISQQLAKNLFLYNQRSLIRKGQEAIATWMMERMWSKQRILEVYMNSVQFGDHLYGVEAASHYYFHRSAQNLTRDQAAFLAALLPNPKYYQENRNDPRFKFKKRFTLKYMRYSEIP	protein production	failed
MYFTEFLTVALIHLLAVASPGPDFAVVVRESVTHGRRAGTWTALGVGCAIFLHVGYSLLGIGLIVSQSIVLFNALKWLAAAYLLYIGYKALRAQPAKPAADDLHKEAGVRTARGAFTSGFVTNGLNPKATLFFLSLFTVVINPHTPLAIQAGYGVYLAVATAVWFCLVAMLFSQQRVRAGFARMGHWFDRTMGAVLIAIGVKLAFTEMH	protein production	failed
MDYCYTGDTHEKLFAAYRADEEPFPTQTQMEFPRREHRRPEIDILKRLFFPTCWNAAELVRDELAVLDRLDTLGGLFFAGIRPYSGSDPAETVDAVIDQLPAVRTRLKKDVEAAFKGDPAAKTYMEIIRSYPGFMAILVQRVAHTLYEAGASEYARELTEYAKTETGIDIHPGAEIGDHFFIDHGTGVVIGETTTVGEWVRLYQDVTLGALHFEADESDEHRLKKGYKRHPDIGDHVVIGAGTKVLGAISVGDHVSIGANSWVTDDIPDDTKVYVTDHPTQERKRTN	protein production	failed
SRLPKSPPYTAFLGNLPYDVTEESIKEFFRGLNISAVRLPREPSNPERLKGFGYAEFEDLDSLLSALSLNEESLGNKRIRVDVADQAQDKD	protein production	not failed
MKSWIVKEIKINGLSYFGPLIFTVLPIAERIYKISLNSYIMINYLILVIFLSFICTYLVLSNLFNGIMYTLTYTVGISPKEIILTRLFLFSTIPVLPIAMALWMTSSLTTLAKFIIQIYILVLMSTIIGIIFKNDIIALIMDFIISALGLSVKINFLFPFLSGQLNPLSGIIVVLLLALTIYLLSNVELQKVERV	protein production	failed
SGEKSENCGVPEDLLNGLKVTDTQEAECAGPPVPDPKNQHSQSKLLRDDEAHLQEDQGEEECFHDCSASFEEEPGADKVENKSNEDVNSSELDEEYLIELKKNMSDEEKQKRREESTRLKEEGNEQFKKGDYIEAESSYSRALEMCPSCFQKERSILFSNRAAARMKQDKKEMAINDCSKAIQLNPSYIRAILRRAELYEKTDKLDEALEDYKSILEKDPSIHQAREACMRLPKQIEERNERLKEEMLGKLKDLGNLVLRPFGLSTENFQIKQDSSTGSYSINFVQNPNNNR	protein production	not failed
VAEVPEEHKSKDGNTTVGYVIFFYTYSTWKGRTVYMEDLYVMPEFRGNGIGKALLGAVAKEAKDQLCSRLQFSVLDWNKPSLDFYMAKGAEDLTAKEGWHFLRFHGMALDNLAQEAP	protein production	failed
NGSERGVLLSVIDRTEERHAKGLRRQVDHRFDKLVGTISEGVLLMDDTGVFRDGNEAAQNILGRSLDEIIGSRFDDDIWNGLREDGSPLPNVEFPFWRAYVEREPVQEEVMGVYPPDAPPRWIRVNAQPLFRSGQEAPYAVLVSFDDITDERLKEEALQTSRDLLSSVLSSSL	protein production	failed
SHHKVSVSPVVHVRGLCESVVEADLVEALEKFGTICYVMMMPFKRQALVEFENIDSAKECVTFAADVPVYIAGQQAFFNYSTSKRITRPGN	protein production	not failed
MSKLIFSVLISVYYNESISYFKKSLDSILYQTLLPAEVVLVKDGILTDDLNCIVKEYSQKYPILKVISLPVNQGLGKALNEGLKHCSYDLVARMDTDDIAKPDRFEKQIRVFQEHPELDVVGAWIDEFEETTSNIISTRKLPEVHDDICQFAKKRNPENHPVIMFRKQAVLAAGGYQHFPLFEDYYLWIRMLQNGAKFYNIQESLLYFRFSPAMFKRRGGLKYVTTELRFQNQLRNLGFITSSEYLYNVFIRVITRMMPNTLRAILYKKALRK	protein production	failed

meta.source: a protein production outcome set (Wang et al. 2014)
